Each recorded value in this set is attributed to ChEMBL document CHEMBL4190219.

Assay: Cytotoxicity against human HepG2 cells assessed as cell viability at 10.1 uM after 72 hrs by WST1 assay (reference value: 100%)
Type: cell-based
Details: read-out: Activity
Experimental Endpoint: viability at 72 h, 10.1 µM
Write the figure, then the unit, nothing else.

INSERT INTO measurements (smiles_representation, experimental_endpoint, value_observed) VALUES
  ('C=C(C)[C@@H]1NC(=O)[C@H](N(C)C)[C@H](O)c2cc(Cl)c(O)c(c2)O[C@](C)(CC)[C@@H](C(=O)N2CC=C[C@H]2C(=O)N/C(C(=O)N/C(=C/C(=O)O)C(=O)O)=C(\C)CC)NC1=O', 'viability at 72 h, 10.1 µM', '37%');

Data request: So what's the measured viability at 72 h, 10.1 µM for this one? `C=C(C)[C@@H]1NC(=O)[C@H](NC)[C@H](O)c2cc(Cl)c(O)c(c2)O[C@](C)(CC)[C@@H](C(=O)N2CC=C[C@H]2C(=O)N/C(C(=O)N/C(=C/C(=O)O)C(=O)O)=C(\C)CC)NC1=O`
Data returned: 48%

---

Test: Cytotoxicity against human HepG2 cells assessed as cell viability at 0.1 uM after 72 hrs by WST1 assay (reference value: 100%)
Type: cell-based
Conditions: read-out: Activity
Experimental Endpoint: viability at 72 h, 0.1 µM (%)
Field format: number, assumed %, no unit text.

INSERT INTO results (smiles_representation, unit_abbreviation, value_observed) VALUES
  ('C=C(C)[C@@H]1NC(=O)[C@H](N(C)C)[C@H](O)c2cc(Cl)c(O)c(c2)O[C@](C)(CC)[C@@H](C(=O)N2CC=C[C@H]2C(=O)N/C(C(=O)N/C(=C/C(=O)O)C(=O)O)=C(\C)CC)NC1=O', '%', 105);

Data request: Entry `C=C(C)[C@@H]1NC(=O)[C@H](NC)[C@H](O)c2cc(Cl)c(O)c(c2)O[C@](C)(CC)[C@@H](C(=O)N2CC=C[C@H]2C(=O)N/C(C(=O)N/C(=C/C(=O)O)C(=O)O)=C(\C)CC)NC1=O` : reported viability at 72 h, 0.1 µM = ?
Data returned: 106

---

Assay: Cytotoxicity against human HepG2 cells assessed as cell vitality at 10.1 uM after 72 hrs by trypan blue staining based assay (reference value: 1.1 +/- 0.5%)
Settings: read-out: Activity
Experimental Endpoint: viability at 72 h, 10.1 µM (%)
The reply should be a number in %, with the unit left off.

INSERT INTO measurements (smiles_representation, experimental_endpoint, unit_abbreviation, value_observed) VALUES
  ('C=C(C)[C@@H]1NC(=O)[C@H](NC)[C@H](O)c2cc(Cl)c(O)c(c2)O[C@](C)(CC)[C@@H](C(=O)N2CC=C[C@H]2C(=O)N/C(C(=O)N/C(=C/C(=O)O)C(=O)O)=C(\C)CC)NC1=O', 'viability at 72 h, 10.1 µM', '%', 17);

Consider the additional compound presented here.
Data request: # viability at 72 h, 10.1 µM lookup, item `C=C(C)[C@@H]1NC(=O)[C@H](N(C)C)[C@H](O)c2cc(Cl)c(O)c(c2)O[C@](C)(CC)[C@@H](C(=O)N2CC=C[C@H]2C(=O)N/C(C(=O)N/C(=C/C(=O)O)C(=O)O)=C(\C)CC)NC1=O`
Data returned: 29.8
